# TARGET_OR_TEST_SYSTEM: RXRα (Homo sapiens)
# Sequence (P19793 1-462): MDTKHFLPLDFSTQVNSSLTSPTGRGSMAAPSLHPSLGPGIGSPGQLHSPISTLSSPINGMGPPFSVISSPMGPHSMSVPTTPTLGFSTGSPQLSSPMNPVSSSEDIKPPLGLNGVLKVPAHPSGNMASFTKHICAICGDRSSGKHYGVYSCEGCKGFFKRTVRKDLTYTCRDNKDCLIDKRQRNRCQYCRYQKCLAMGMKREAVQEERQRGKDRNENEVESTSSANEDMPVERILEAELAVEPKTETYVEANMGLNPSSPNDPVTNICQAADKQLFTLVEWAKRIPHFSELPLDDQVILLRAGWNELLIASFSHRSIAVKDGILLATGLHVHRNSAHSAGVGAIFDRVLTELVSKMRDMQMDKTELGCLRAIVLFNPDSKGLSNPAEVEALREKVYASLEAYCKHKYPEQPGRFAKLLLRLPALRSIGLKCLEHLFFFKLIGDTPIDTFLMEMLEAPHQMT
Rule for this label: fulfilled means Ki is less than 100 nM; not fulfilled means Ki is at least 100 nM.

Consider the following illustrative entries.
{"SMILES_REPR": "CCN(c1ccc(C(=O)O)cc1)c1cc2c(cc1C)C(C)(C)CCN2C(C)C", "TARGET_OR_TEST_SYSTEM": "RXRα (Homo sapiens)", "CLASSIFICATION": "fulfilled"}
{"SMILES_REPR": "Cc1cc2c(cc1N(C)c1ccc(C(=O)O)cc1)C(C)(C)CCN2C(C)C", "TARGET_OR_TEST_SYSTEM": "RXRα (Homo sapiens)", "CLASSIFICATION": "not fulfilled"}

Hi there! Is Ki for `CCCN(c1ccc(C(=O)O)cc1)c1cc2c(cc1C)C(C)(C)CCN2C(C)C` below 100 nM, do you know?
fulfilled

Consider the compound `CCN(c1ccc(C(=O)O)cc1)c1cc2c(cc1C)N(C(C)C)CCC2(C)C` . Is its Ki strictly less than 100 nM?
not fulfilled

API: query returns whether the compound falls strictly under 100 nM in Ki. Query: `CC(C)N1CCC(C)(C)c2ccc(N(CC3CC3)c3ccc(C(=O)O)cc3)cc21`
fulfilled
